Source: ChEMBL document CHEMBL4052590

experiment: Cytotoxicity against mouse osteoclasts assessed as effect on cell survival up to 4 uM after 72 hrs by MTT assay; type: cell-based, Osteoclast; settings: read-out: Survival
readout-kind: viability at 72 h

[Q] Could you tell me which viability at 72 h is on file for C[C@]1(OC(=O)/C=C/c2ccccc2)C[C@@H](O)[C@]2(O)C=CO[C@@H](O[C@@H]3O[C@H](CO)[C@@H](O)[C@H](O)[C@H]3O)[C@@H]21 [HARPAGOSIDE] ?
[A] > 85%

====

assay: Cytotoxicity against mouse MC3T3-E1 cells assessed as cell viability up to 4 uM after 72 hrs by MTT assay; type: cell-based; conditions: read-out: Activity
readout-kind: viability at 72 h

[Q] Could you tell me which viability at 72 h is on file for C[C@]1(OC(=O)/C=C/c2ccccc2)C[C@@H](O)[C@]2(O)C=CO[C@@H](O[C@@H]3O[C@H](CO)[C@@H](O)[C@H](O)[C@H]3O)[C@@H]21 [HARPAGOSIDE] ?
[A] > 90%
